Molecular target: human CTPS1 (Homo sapiens, UniProt P17812)
Sequence (P17812 whole entry): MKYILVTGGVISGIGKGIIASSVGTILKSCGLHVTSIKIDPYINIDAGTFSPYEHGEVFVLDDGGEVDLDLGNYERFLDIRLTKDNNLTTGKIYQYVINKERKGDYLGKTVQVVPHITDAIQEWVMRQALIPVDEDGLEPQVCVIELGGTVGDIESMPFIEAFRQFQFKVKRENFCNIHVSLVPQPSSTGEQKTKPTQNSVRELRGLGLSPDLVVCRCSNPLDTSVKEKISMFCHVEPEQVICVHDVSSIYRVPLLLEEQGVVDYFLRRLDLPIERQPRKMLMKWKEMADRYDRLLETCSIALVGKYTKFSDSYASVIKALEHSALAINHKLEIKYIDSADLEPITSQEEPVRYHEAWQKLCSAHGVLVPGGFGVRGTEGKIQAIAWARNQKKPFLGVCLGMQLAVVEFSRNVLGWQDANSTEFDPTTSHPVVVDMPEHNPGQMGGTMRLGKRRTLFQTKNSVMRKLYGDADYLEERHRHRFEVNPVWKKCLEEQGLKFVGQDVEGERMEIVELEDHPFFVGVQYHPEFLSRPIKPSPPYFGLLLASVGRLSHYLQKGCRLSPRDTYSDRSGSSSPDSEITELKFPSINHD
Test: ADP-Glo assay, human CTPS1 enzyme inhibition
Format: biochemical
Details: wild-type human CTPS1, 25 nM enzyme; ADP-Glo; read-out: ADP-Glo_WT_hCTPS1—25 nM_IC50 (IC50)
pIC50: −log10 of the molar value.
REPORTED PROPERTY: pIC50

CCOc1cncc(-c2cnc(C(=O)N[C@H](c3cc(NS(=O)(=O)C4CC4)ccn3)[C@@H](C)O)s2)n1 [I-267] ... 7.60 to 8.30
CCOc1cncc(-c2cnc(C(=O)N[C@H](CN3CC[C@@](C)(O)C3)c3cc(NS(=O)(=O)C4CC4)ccn3)s2)n1 ... 7.60 to 8.30
CCOc1cncc(-c2ccc(C(=O)N[C@@H](CCN3CCCCC3)c3cc(NS(=O)(=O)C4CC4)ccn3)c(F)c2F)n1 (single isomer, unassigned) ... < 7.00

Please find the next molecule below.
Input: Endpoint output: pIC50 of `CCOc1cncc(-c2cnc(C(=O)N[C@@H](CN(C)C)c3cccc(NS(=O)(=O)C(F)F)c3)s2)n1` . Value?
Output: 7.30 to 7.60
